- System: NCI-H2009
- ASSAY PROCEDURE: relative viability (nuclei count vs DMSO), 5 days (fraction); higher = more cells survive
- CONDITION DETAILS: first compound 4 µM
# key: entry, value: relative viability
MEASUREMENT TYPE: relative viability

[[record]]
compound = "Cc1sc2c(c1C)C(c1ccc(Cl)cc1)=N[C@@H](CC(=O)OC(C)(C)C)c1nnc(C)n1-2 [JQ1] + Cc1nc(NC(=O)N2CCC[C@H]2C(N)=O)sc1-c1ccnc(C(C)(C)C(F)(F)F)c1 [Alpelisib] (partner 2 µM)"
target_or_system = "NCI-H2009"
measurement_type = "relative viability"
data_value = 0.268

[[record]]
compound = "Cc1sc2c(c1C)C(c1ccc(Cl)cc1)=N[C@@H](CC(=O)OC(C)(C)C)c1nnc(C)n1-2 [JQ1] + CC(C)C[C@H](NC(=O)[C@H](Cc1ccccc1)NC(=O)c1cnccn1)B(O)O [Bortezomib] (partner 0.002 µM)"
target_or_system = "NCI-H2009"
measurement_type = "relative viability"
data_value = 0.197

[[record]]
compound = "Cc1sc2c(c1C)C(c1ccc(Cl)cc1)=N[C@@H](CC(=O)OC(C)(C)C)c1nnc(C)n1-2 [JQ1] + Cc1nc(Nc2ncc(C(=O)Nc3c(C)cccc3Cl)s2)cc(N2CCN(CCO)CC2)n1 [Dasatinib] (partner 0.075 µM)"
target_or_system = "NCI-H2009"
measurement_type = "relative viability"
data_value = 0.185

[[record]]
compound = "Cc1sc2c(c1C)C(c1ccc(Cl)cc1)=N[C@@H](CC(=O)OC(C)(C)C)c1nnc(C)n1-2 [JQ1] + CS(=O)(=O)CCNCc1ccc(-c2ccc3ncnc(Nc4ccc(OCc5cccc(F)c5)c(Cl)c4)c3c2)o1 [Lapatinib] (partner 2 µM)"
target_or_system = "NCI-H2009"
measurement_type = "relative viability"
data_value = 0.251

[[record]]
compound = "Cc1sc2c(c1C)C(c1ccc(Cl)cc1)=N[C@@H](CC(=O)OC(C)(C)C)c1nnc(C)n1-2 [JQ1] + Nc1ncn([C@H]2C[C@H](O)[C@@H](CO)O2)c(=O)n1 [Decitabine] (partner 2 µM)"
target_or_system = "NCI-H2009"
measurement_type = "relative viability"
data_value = 0.213

[[record]]
compound = "Cc1sc2c(c1C)C(c1ccc(Cl)cc1)=N[C@@H](CC(=O)OC(C)(C)C)c1nnc(C)n1-2 [JQ1] + N=C(N)NC(=N)NCCc1ccccc1 [Phenformin] (partner 250 µM)"
target_or_system = "NCI-H2009"
measurement_type = "relative viability"
data_value = 0.223

[[record]]
compound = "Cc1sc2c(c1C)C(c1ccc(Cl)cc1)=N[C@@H](CC(=O)OC(C)(C)C)c1nnc(C)n1-2 [JQ1] + COc1cc2c(Oc3ccc(NC(=O)C4(C(=O)Nc5ccc(F)cc5)CC4)cc3F)ccnc2cc1OCCCN1CCOCC1 [Foretinib] (partner 0.25 µM)"
target_or_system = "NCI-H2009"
measurement_type = "relative viability"
data_value = 0.352

